Test system: Normotensive cats
Assay: Measure of arterial pressure in normotensive cats
Type: in vivo, cat
Conditions: anesthetized cats, crural vein; dose 1-2-4 mg/kg
Structures can show the parent of a compound that is named as a salt.
endpoint: Times of effect duration (hypotension in normotensive cats)

# compound, subject-of-test, recorded-value
rows = [
    ("COc1cc2c(cc1OC)CC(N(CC1CC1)CC(O)c1ccc(C)cc1)CC2 (stereo not shown) [ST 574, hydrochloride]", "Normotensive cats", "M/B"),
    ("COc1cc2c(cc1OC)CC(NCC(O)c1ccc(F)cc1)CC2 (stereo not shown) [ST 593, hydrochloride]", "Normotensive cats", "M/B"),
    ("CCCN(CC(O)c1ccc(C)cc1)C1CCc2cc(OC)c(OC)cc2C1 (stereo not shown) [ST 571, hydrochloride]", "Normotensive cats", "M/B"),
    ("COc1ccc(C(O)CNC2CCc3cc(OC)c(OC)cc3C2)cc1 (stereo not shown) [ST 578, hydrochloride]", "Normotensive cats", "B/L"),
]

----------
Collected LD50 values appear next to each entry.
Test: LD50 in mice (intravenous)
Conditions: mouse, in vivo, Weil's method
Where a name gives a salt, the structure may show the parent alone.

# compound, LD50 [mg/kg]
rows = [
    ("COc1cc2c(cc1OC)CC(NCC(O)c1ccccc1)CC2 (centres unmarked) [ST 579, hydrochloride]", 35.7),
    ("CCN(CC(O)c1ccccc1)C1CCc2cc(OC)c(OC)cc2C1 (centres unmarked) [ST 570, hydrochloride]", 34.9),
    ("COc1ccc(C(O)CNC2CCc3cc(OC)c(OC)cc3C2)cc1 (centres unmarked) [ST 578, hydrochloride]", 27.7),
    ("CCN(CCc1ccccc1)C1CCc2cc(OC)c(OC)cc2C1 (centres unmarked) [ST 577, hydrochloride]", 35.7),
    ("CCCN(CC(O)c1ccc(C)cc1)C1CCc2cc(OC)c(OC)cc2C1 (centres unmarked) [ST 571, hydrochloride]", 42.3),
    ("COc1cc2c(cc1OC)CC(NCC(OC)c1ccccc1)CC2 (centres unmarked) [ST 600, hydrochloride]", 29.7),
    ("COc1cc2c(cc1OC)CC(NCC(O)c1ccc(C)cc1)CC2 (centres unmarked)", 35.7),
    ("COc1cc2c(cc1OC)CC(N(CC1CC1)CC(O)c1ccccc1)CC2 (centres unmarked) [ST 567, hydrochloride]", 30.2),
]

----------
Assay: Tolerability in mice (oral and intravenous)
Design: species or system mouse (Male Albino Swiss)
Details: mouse, in vivo, oral, fasted 18 hours, monitored 7 days, read-out: Tolerability, os
Counter-ions that a name gives are not always drawn.
endpoint: MTD at 168 h

# compound, recorded-value
data = [
    ("COc1cc2c(cc1OC)CC(NCC(O)c1ccc(C(F)(F)F)cc1)CC2 (stereo not drawn) [ST 590, hydrochloride]", "> 50 mg/kg"),
    ("COc1cc2c(cc1OC)CC(NCC(O)c1ccccc1)CC2 (stereo not drawn) [ST 579, hydrochloride]", "> 50 mg/kg"),
    ("COc1cc2c(cc1OC)CC(NCC(OC)c1ccccc1)CC2 (stereo not drawn) [ST 600, hydrochloride]", "> 50 mg/kg"),
]

----------
Experiment: Tolerability in mice (oral and intravenous)
Design: species or system mouse (Male Albino Swiss)
Conditions: mouse, in vivo, intravenous, monitored 7 days, read-out: Tolerability, i.v.
Counter-ions that a name gives are not always drawn.

# molecule, MTD at 168 h
measured = [
    ("COc1cc2c(cc1OC)CC(NCC(O)c1ccc(O)cc1)CC2 (centres unmarked) [ST 558, hydrochloride]", "> 50 mg/kg"),
    ("CCN(CCc1ccccc1)C1CCc2cc(OC)c(OC)cc2C1 (centres unmarked) [ST 577, hydrochloride]", "> 20 mg/kg"),
    ("COc1ccc(C(O)CNC2CCc3cc(OC)c(OC)cc3C2)cc1 (centres unmarked) [ST 578, hydrochloride]", "> 15 mg/kg"),
    ("CCN(CC(O)c1ccccc1)C1CCc2cc(OC)c(OC)cc2C1 (centres unmarked) [ST 570, hydrochloride]", "> 20 mg/kg"),
    ("COc1cc2c(cc1OC)CC(NCC(O)c1ccc(C(F)(F)F)cc1)CC2 (centres unmarked) [ST 590, hydrochloride]", "> 50 mg/kg"),
    ("COc1cc2c(cc1OC)CC(NCC(O)c1ccc(C)cc1)CC2 (centres unmarked) [ST 563]", "> 20 mg/kg"),
    ("CCCN(CC(O)c1ccccc1)C1CCc2cc(OC)c(OC)cc2C1 (centres unmarked) [ST 566, hydrochloride]", "> 20 mg/kg"),
    ("COc1cc2c(cc1OC)CC(N(CC1CC1)CC(O)c1ccccc1)CC2 (centres unmarked) [ST 567, hydrochloride]", "> 15 mg/kg"),
    ("CCCN(CC(O)c1ccc(C)cc1)C1CCc2cc(OC)c(OC)cc2C1 (centres unmarked) [ST 571, hydrochloride]", "> 30 mg/kg"),
    ("CCN(CC(O)c1ccc(C(F)(F)F)cc1)C1CCc2cc(OC)c(OC)cc2C1 (centres unmarked) [ST 592, hydrochloride]", "> 30 mg/kg"),
    ("COc1cc2c(cc1OC)CC(N(CC1CC1)CC(O)c1ccc(C)cc1)CC2 (centres unmarked) [ST 574, hydrochloride]", "> 30 mg/kg"),
    ("COc1cc2c(cc1OC)CC(NCC(O)c1ccccc1)CC2 (centres unmarked) [ST 579, hydrochloride]", "> 20 mg/kg"),
    ("COc1cc2c(cc1OC)CC(NCC(O)c1ccc(F)cc1)CC2 (centres unmarked) [ST 593, hydrochloride]", "> 50 mg/kg"),
    ("COc1cc2c(cc1OC)CC(NCC(OC)c1ccccc1)CC2 (centres unmarked) [ST 600, hydrochloride]", "> 20 mg/kg"),
]
